- Tested on: male db/db mice
- procedure.details: Hypoglycemic activity in db/db mice, oral administration once a day for 2 weeks
- Assay type: in vivo
- run.conditions: Mus musculus, po, 336 h, dosage 100 mg/kg orally once a day for 2 weeks in 0.5% carboxymethyl cellulose, male db/db mice (7 to 8 weeks old), versus vehicle on last day
observation.type: inhibition in vivo at 100 mg/kg (%)
// return numeric value only (unit: %, not printed)

Below are worked cases with known answers.
Cc1ccc(C(=O)c2ccn(C/C=C/c3cccc(SC(C)C(=O)O)c3)c2)cc1 (centres unmarked) :: 27
Cc1ccc(C(=O)c2cccn2C/C=C/c2cccc(O[C@@H](C)C(=O)O)c2)cc1 :: 55
Cc1ccc(C(=O)c2cccn2C/C=C/c2cccc(C(C)(C)C(=O)O)c2)cc1 :: 65
O=C(O)COc1cccc(/C=C/Cn2cccc2C(=O)c2ccc(Cl)cc2)c1 :: 23
Cc1ccc(NC(=O)c2cccn2C/C=C/c2cccc(SCC(=O)O)c2)cc1 :: 16
COc1ccccc1NC(=O)c1cccn1C/C=C/c1cccc(SCC(=O)O)c1 :: 20
CCC(Cc1cccc(/C=C/Cn2cccc2C(=O)c2ccc(C)cc2)c1)C(=O)O (centres unmarked) :: 68

**Query** Tell me the measured inhibition in vivo at 100 mg/kg of Cc1ccc(C(=O)c2cccn2C/C=C/c2cccc(O[C@H](C)C(=O)O)c2)cc1 , please.
**Result** 55
